# experimentalSystem: V₁ receptor (Rattus norvegicus)
# Construct: Using rat liver plasma membrane preparations
# Sequence (P30560 whole entry): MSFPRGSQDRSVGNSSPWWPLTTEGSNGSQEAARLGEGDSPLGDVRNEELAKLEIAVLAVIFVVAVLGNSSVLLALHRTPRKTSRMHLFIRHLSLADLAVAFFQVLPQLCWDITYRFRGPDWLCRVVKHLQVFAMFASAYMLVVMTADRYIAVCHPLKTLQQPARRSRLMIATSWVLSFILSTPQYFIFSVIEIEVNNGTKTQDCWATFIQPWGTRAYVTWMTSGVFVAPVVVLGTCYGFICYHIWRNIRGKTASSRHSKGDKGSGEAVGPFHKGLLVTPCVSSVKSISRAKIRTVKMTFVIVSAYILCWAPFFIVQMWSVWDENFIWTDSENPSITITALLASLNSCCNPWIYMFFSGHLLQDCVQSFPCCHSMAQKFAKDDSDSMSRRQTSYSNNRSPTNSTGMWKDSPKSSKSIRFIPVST
# method: V₁ receptor binding assay ([³H]-Arg-vasopressin, rat liver plasma membrane preparations)
# cond: 37°C for 10 minutes
property: IC50 (nM)
The figure you give is taken to be in nM; do not add the unit.

Examples with their reported IC50 follow.
>  <compoundStructure>
O=C(Nc1ccc(C(=O)N2CCCCc3ccccc32)cc1)c1cccc([N+](=O)[O-])c1

>  <IC50 / nM>
460

$$$$
>  <compoundStructure>
O=C(Nc1ccc(C(=O)N2CCCCc3ccccc32)cc1)c1c(F)cccc1Cl

>  <IC50 / nM>
140

$$$$
>  <compoundStructure>
O=C(Nc1ccc(C(=O)N2CCCCc3ccccc32)cc1)c1ccc(Cl)cc1Cl

>  <IC50 / nM>
98

$$$$

Request: Field request: IC50 | item: "CC(=O)NCCCCOc1ccccc1C(=O)Nc1ccc(C(=O)N2CCCCc3ccccc32)cc1"
Response: 120

----------
Below, each entry is listed alongside its reported pIC50.
# experimentalSystem: V₂ receptor (Rattus norvegicus)
# Construct: Using rat kidney plasma membrane preparations
# method: V₂ receptor binding assay ([³H]-Arg-vasopressin, rat kidney plasma membrane preparations)
# cond: 4°C for 3 hours
The scale used: pIC50 is minus the common logarithm of the concentration in molar units.

Examples with their reported pIC50 follow.
>  <compound>
CN(C)C1c2ccccc2N(C(=O)c2ccc(NC(=O)c3ccccc3Cl)cc2)CCC1O (centres unmarked) [compound 216]

>  <pIC50>
6.04

$$$$
>  <compound>
Cc1ccccc1C(=O)Nc1ccc(C(=O)N2CCCC(OC(N)=O)c3ccccc32)cc1 (centres unmarked) [compound 191]

>  <pIC50>
8.05

$$$$
>  <compound>
CCN(CC(=O)Nc1ccc(C(=O)N2CCCC(O)c3ccccc32)c(Cl)c1)c1ccccc1 (centres unmarked) [compound 222]

>  <pIC50>
8.00

$$$$
>  <compound>
O=C(Nc1ccc(C(=O)N2CCCCc3ccccc32)cc1)c1ccccc1OCCCCO [compound 120]

>  <pIC50>
6.55

$$$$
>  <compound>
O=C(Nc1ccc(C(=O)N2CCCCCc3ccccc32)cc1)c1cc(Cl)cc(Cl)c1 [compound 39]

>  <pIC50>
7.15

$$$$

Request: Field request: pIC50 | item: O=C(Nc1ccc(C(=O)N2CCCc3ccccc32)cc1)c1ccccc1 [Test compound 1]
Response: 6.01

Request: Field request: pIC50 | item: Cc1cccc(C(=O)Nc2ccc(C(=O)N3CCOCc4ccccc43)cc2)c1C [compound 42]
Response: 7.20

Request: Field request: pIC50 | item: Cc1ccccc1C(=O)Nc1ccc(C(=O)N2CCCC(N(C)C(=O)Cn3ccnc3)c3ccccc32)cc1 (centres unmarked) [compound 297]
Response: 7.29

----------
# experimentalSystem: V₂ receptor (Rattus norvegicus, UniProt Q00788)
# Construct: Using rat kidney plasma membrane preparations
# Sequence (Q00788 whole entry): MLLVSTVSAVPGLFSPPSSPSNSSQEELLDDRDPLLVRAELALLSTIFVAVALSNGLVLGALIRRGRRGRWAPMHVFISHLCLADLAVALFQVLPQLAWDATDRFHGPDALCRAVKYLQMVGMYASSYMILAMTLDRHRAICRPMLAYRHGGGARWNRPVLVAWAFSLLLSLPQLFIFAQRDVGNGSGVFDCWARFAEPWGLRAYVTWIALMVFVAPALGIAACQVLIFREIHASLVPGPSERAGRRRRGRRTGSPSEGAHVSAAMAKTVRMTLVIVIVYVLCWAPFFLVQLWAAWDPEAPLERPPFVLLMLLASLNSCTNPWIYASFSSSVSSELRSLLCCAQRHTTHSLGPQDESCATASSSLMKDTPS
# method: V₂ receptor binding assay ([³H]-Arg-vasopressin, rat kidney plasma membrane preparations)
# cond: 4°C for 3 hours
property: IC50 (nM)
The figure you give is taken to be in nM; do not add the unit.

Examples with their reported IC50 follow.
>  <compound>
Cc1ccccc1C(=O)Nc1ccc(C(=O)N2CCC[S+]([O-])c3ccccc32)cc1 (centres unmarked) [compound 171]

>  <IC50 [nM]>
870

$$$$
>  <compound>
Cc1ccccc1C(=O)Nc1ccc(C(=O)N2CCCCCc3ccccc32)cc1 [compound 36]

>  <IC50 [nM]>
28

$$$$
>  <compound>
COc1cccc(C(=O)Nc2ccc(C(=O)N3CC(C)Cc4ccccc43)cc2)c1 (centres unmarked) [compound 47]

>  <IC50 [nM]>
200

$$$$
>  <compound>
Cc1ccccc1C(=O)Nc1ccc(C(=O)N2CCCC(O)(CO)c3ccccc32)cc1 (centres unmarked) [compound 237]

>  <IC50 [nM]>
41

$$$$
>  <compound>
O=C(Nc1ccc(C(=O)N2CCCCc3ccccc32)cc1)c1ccccc1 [compound 27]

>  <IC50 [nM]>
70

$$$$
>  <compound>
Cc1cc(C(=O)N2CCCC(N(C)C)c3ccccc32)ccc1NC(=O)c1ccc(Cl)cc1Cl (centres unmarked) [compound 227]

>  <IC50 [nM]>
29

$$$$
>  <compound>
CC1Cc2ccccc2N(C(=O)c2ccc(NC(=O)C3CCCCC3)cc2)C1 (centres unmarked) [compound 44]

>  <IC50 [nM]>
50

$$$$

Request: Field request: IC50 | item: COc1cc(C(=O)N2CCCC(N(C)C)c3ccccc32)ccc1NC(=O)c1ccc(Cl)cc1Cl (centres unmarked) [compound 248]
Response: 60

----------
# experimentalSystem: V₂ receptor (Rattus norvegicus)
# Construct: Using rat kidney plasma membrane preparations
# method: V₂ receptor binding assay ([³H]-Arg-vasopressin, rat kidney plasma membrane preparations)
# cond: 4°C for 3 hours
property: IC50 (nM)
The figure you give is taken to be in nM; do not add the unit.

>  <molecule>
CN(C)C1CCCN(C(=O)c2ccc(NC(=O)c3ccccc3OCC(N)=O)cc2)c2ccccc21 (stereo not drawn)

>  <IC50 [nM]>
170

$$$$
>  <molecule>
O=C(Nc1ccc(C(=O)N2CCCC(NCc3ccccc3)c3ccccc32)cc1)c1ccccc1Cl (stereo not drawn)

>  <IC50 [nM]>
63

$$$$
>  <molecule>
Cc1ccccc1C(=O)Nc1ccc(C(=O)N2CCCC(N(C)CC(=O)N(C)C)c3ccccc32)cc1 (stereo not drawn)

>  <IC50 [nM]>
26

$$$$
>  <molecule>
Cc1ccccc1C(=O)Nc1ccc(C(=O)N2CCCC(OCCCN)c3ccccc32)cc1 (stereo not drawn)

>  <IC50 [nM]>
8

$$$$
>  <molecule>
O=C(Nc1ccc(C(=O)N2CCCCc3ccccc32)cc1)c1ccccc1Br

>  <IC50 [nM]>
37

$$$$
>  <molecule>
O=C(Nc1ccc(C(=O)N2CCCCc3ccccc32)cc1)c1c(F)cccc1Cl

>  <IC50 [nM]>
46

$$$$
>  <molecule>
Cc1ccccc1C(=O)Nc1ccc(C(=O)N2CCCC(C)c3ccccc32)cc1 (stereo not drawn)

>  <IC50 [nM]>
7

$$$$
>  <molecule>
CC(=O)OCCCCOc1ccccc1C(=O)Nc1ccc(C(=O)N2CCCCc3ccccc32)cc1

>  <IC50 [nM]>
240

$$$$
>  <molecule>
CCNC1CCCN(C(=O)c2ccc(NC(=O)c3ccccc3C)cc2)c2ccccc21 (stereo not drawn)

>  <IC50 [nM]>
29

$$$$
>  <molecule>
O=C(Nc1ccc(C(=O)N2CCCC(NC3CC3)c3cc(Cl)ccc32)cc1)c1ccccc1Cl (stereo not drawn)

>  <IC50 [nM]>
13

$$$$

Request: Field request: IC50 | item: Cc1ccccc1C(=O)Nc1ccc(C(=O)N2CCCC(N(C)C)c3ccccc32)c(C)c1 (stereo not drawn)
Response: 22

Request: Field request: IC50 | item: "O=C(CN1CCCCC1)Nc1ccc(C(=O)N2CCCCc3ccccc32)cc1"
Response: 540

Request: Field request: IC50 | item: CCN(CC(=O)Nc1ccc(C(=O)N2CCCC(OCC(=O)N(C)C)c3ccccc32)cc1)c1ccccc1 (stereo not drawn)
Response: 12

Request: Field request: IC50 | item: CCN(CC(=O)Nc1ccc(C(=O)N2CCCC(NC)c3cc(Cl)ccc32)cc1)c1ccccc1 (stereo not drawn)
Response: 10

Request: Field request: IC50 | item: CN(C)C1CCCN(C(=O)c2ccc(NC(=O)CNc3ccccc3Cl)cc2)c2ccccc21 (stereo not drawn)
Response: 25

Request: Field request: IC50 | item: Cc1ccccc1C(=O)Nc1ccc(C(=O)N2CCCC(OCC(=O)N3CCCC3C(N)=O)c3ccccc32)cc1 (stereo not drawn)
Response: 19

Request: Field request: IC50 | item: "Cc1ccccc1C(=O)Nc1ccc(C(=O)N2CCSCc3ccccc32)cc1"
Response: 11

Request: Field request: IC50 | item: Cc1cc(NC(=O)c2ccc(Cl)cc2Cl)ccc1C(=O)N1CCCC(N(C)C)c2ccccc21 (stereo not drawn)
Response: 26

Request: Field request: IC50 | item: CNC1CCCN(C(=O)c2ccc(NC(=O)c3ccccc3C)cc2)c2c(Cl)cccc21 (stereo not drawn)
Response: 60

Request: Field request: IC50 | item: "O=C(Nc1ccc(C(=O)N2CCCC(=O)c3ccccc32)cc1)c1cc(Cl)cc(Cl)c1"
Response: 100

Request: Field request: IC50 | item: "COc1cccc(OCC(=O)Nc2ccc(C(=O)N3CCCCc4ccccc43)cc2)c1"
Response: 87

Request: Field request: IC50 | item: "O=C(Nc1ccccc1C(=O)N1CCCc2ccccc21)c1ccc2ccccc2c1"
Response: 1400

Request: Field request: IC50 | item: Cc1ccccc1C(=O)Nc1ccc(C(=O)N2CCCC(N(C)CC#N)c3ccccc32)cc1 (stereo not drawn)
Response: 25

Request: Field request: IC50 | item: "O=C(Nc1ccc(C(=O)N2CCCCc3ccccc32)cc1)c1ccc(Cl)cc1Cl"
Response: 23
